Measured On: MMP-2 (Homo sapiens, UniProt P08253)
Sequence (P08253 110-660): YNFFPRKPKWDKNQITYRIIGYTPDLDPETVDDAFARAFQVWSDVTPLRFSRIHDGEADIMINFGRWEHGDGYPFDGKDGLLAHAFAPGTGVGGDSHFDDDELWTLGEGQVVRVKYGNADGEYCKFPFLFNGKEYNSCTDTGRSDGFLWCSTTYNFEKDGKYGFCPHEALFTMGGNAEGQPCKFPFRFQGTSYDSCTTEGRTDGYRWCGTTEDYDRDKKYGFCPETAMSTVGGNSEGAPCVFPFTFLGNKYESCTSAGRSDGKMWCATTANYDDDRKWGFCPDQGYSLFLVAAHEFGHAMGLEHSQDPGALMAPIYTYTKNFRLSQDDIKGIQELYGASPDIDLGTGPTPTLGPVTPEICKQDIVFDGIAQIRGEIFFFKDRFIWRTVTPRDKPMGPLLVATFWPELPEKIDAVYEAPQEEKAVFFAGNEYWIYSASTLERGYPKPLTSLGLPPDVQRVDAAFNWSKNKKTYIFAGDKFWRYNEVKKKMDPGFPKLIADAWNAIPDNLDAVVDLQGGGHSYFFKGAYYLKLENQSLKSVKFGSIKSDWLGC
Assay Name: Secondary P218 Quenched fluorescence Assay for MMP-2 Inhibition
Format: biochemical
Measurement Parameters: P218 substrate, 0.2 nM enzyme; x (n) = average of n determinations; read-out: MMP-2 Fluorogenic IC50
pIC50: −log10 of the molar value.
Measured Parameter: pIC50

> print(dat)
                                   compound  observed.measurement
1  O=C(O)[C@@H]1[C@@H](C(=O)c2ccc(-c3ccc(Cl)cc3)cc2)CC[C@H]1Sc1ccccc1 (relative stereo) [Example 294]                  8.40
2  CCOC(=O)/C=C/c1ccc(-c2ccc(C(=O)CC(CCCc3ccccc3)C(=O)O)cc2)cc1 (stereo not shown) [Example 42]                  7.68
3  COC(=O)c1ccccc1SCC(CC(=O)c1ccc(-c2ccc(Cl)cc2)cc1)C(=O)O (stereo not shown) [Example 244]                  8.15
4  O=C(O)CCC(=O)c1ccc(-c2ccccc2)cc1 [fenbufen, 3-biphenoylpropanoic acid, reference compound]                  6.00

* * *

Measured On: MMP-3 (Homo sapiens)
Construct: Truncated Prostromelysin-257 was expressed in a soluble form in E.coli; made in house; host or cells: E. coli
Assay Name: Primary Thiopeptilide MMP-3 Inhibition Assay
Assay type: biochemical
Measurement Parameters: pH 6.5; 13 nM stromelysin; x (n) = average of n determinations; read-out: MMP-3 Thiopep. IC50
IC50 strictly under 0.2 µM means class 1; at 0.2 µM or over means class 0.

> print(dat)
                                    compound           measured.on  class.label
 1  O=C(O)CCC(=O)c1ccc(-c2ccc(Br)cc2)cc1 [Example 7, reference compound]  MMP-3 (Homo sapiens)      class 0
 2  CN(C)c1ccc(-c2ccc(C(=O)CC(CCCc3ccccc3)C(=O)O)cc2)cc1 (centres unmarked)  MMP-3 (Homo sapiens)      class 0
 3  CCCC(CC(=O)c1ccc(-c2ccc(Cl)cc2)cc1)C(=O)O (centres unmarked)  MMP-3 (Homo sapiens)      class 0
 4  CCc1ccc(-c2ccc(C(=O)CC(CC(C)C)C(=O)O)cc2)cc1 (centres unmarked)  MMP-3 (Homo sapiens)      class 0
 5  C=C(CC(O)c1ccc(-c2ccc(Cl)cc2)cc1)C(=O)O (centres unmarked) [Example 38, reference compound]  MMP-3 (Homo sapiens)      class 0
 6  O=C(O)CC(CSc1ccccc1)C(=O)c1ccc(-c2ccc(Cl)cc2)cc1 (centres unmarked)  MMP-3 (Homo sapiens)      class 0
 7  O=C(CC(CSc1ccccc1Cl)C(=O)O)c1ccc(-c2ccc(Cl)cc2)cc1 (centres unmarked)  MMP-3 (Homo sapiens)      class 0
 8  Cc1ccccc1S[C@H]1CC[C@H](C(=O)c2ccc(-c3ccc(Cl)cc3)cc2)[C@H]1C(=O)O (relative stereo)  MMP-3 (Homo sapiens)      class 1
 9  O=C(CC(CSc1ccccc1CO)C(=O)O)c1ccc(-c2ccc(Cl)cc2)cc1 (centres unmarked)  MMP-3 (Homo sapiens)      class 1
10  O=C(CC(CSc1ccc([N+](=O)[O-])cc1)C(=O)O)c1ccc(-c2ccc(Cl)cc2)cc1 (centres unmarked)  MMP-3 (Homo sapiens)      class 0
11  CCc1ccccc1SCC(CC(=O)c1ccc(-c2ccc(Cl)cc2)cc1)C(=O)O (centres unmarked)  MMP-3 (Homo sapiens)      class 1
12  O=C(CC(CCOCc1ccccc1)C(=O)O)c1ccc(-c2ccc(Cl)cc2)cc1 (centres unmarked)  MMP-3 (Homo sapiens)      class 0
13  CCCCCOc1ccc(-c2ccc(C(=O)CC(CCCc3ccccc3)C(=O)O)cc2)cc1 (centres unmarked)  MMP-3 (Homo sapiens)      class 1
14  O=C(CC(CCCCCc1ccccc1)C(=O)O)c1ccc(-c2ccc(Cl)cc2)cc1 (centres unmarked)  MMP-3 (Homo sapiens)      class 0
15  O=C(CC(CSC(=O)c1ccccc1)C(=O)O)c1ccc(-c2ccc(Cl)cc2)cc1 (centres unmarked)  MMP-3 (Homo sapiens)      class 0
16  Cc1ccccc1SCC(CC(=O)c1ccc(-c2ccc(Cl)cc2)cc1)C(=O)O (centres unmarked)  MMP-3 (Homo sapiens)      class 1
17  COC(=O)c1ccc(SCC(CC(=O)c2ccc(-c3ccc(Cl)cc3)cc2)C(=O)O)cc1 (centres unmarked)  MMP-3 (Homo sapiens)      class 0

* * *

Measured On: MMP-3 (Homo sapiens, UniProt P08254)
Construct: Truncated Prostromelysin-257 was expressed in a soluble form in E.coli; made in house; host or cells: E. coli
Sequence (P08254 100-274 limits assumed): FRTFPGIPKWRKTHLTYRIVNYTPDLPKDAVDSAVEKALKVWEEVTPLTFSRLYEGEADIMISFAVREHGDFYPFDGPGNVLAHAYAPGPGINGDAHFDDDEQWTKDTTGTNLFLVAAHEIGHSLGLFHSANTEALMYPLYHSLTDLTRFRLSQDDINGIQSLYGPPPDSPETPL
Assay Name: Automated MMP Profiling Assay, MMP-3 fluorogenic
Format: biochemical
Measurement Parameters: 96-well automated, P218
pIC50: −log10 of the molar value.
pIC50 for assorted compounds
Measured Parameter: pIC50

> print(dat)
                                   compound  observed.measurement
1  CCCCCOc1ccc(-c2ccc(C(=O)CC(CCc3cccc(I)c3)C(=O)O)cc2)cc1 (stereo not shown)                  6.74
2  CCOc1ccc(-c2ccc(C(=O)CC(CCN3C(=O)CCC3=O)C(=O)O)cc2)cc1 (stereo not shown)                  7.08
3  O=C(O)[C@H]1[C@H](CN2C(=O)c3cccc([N+](=O)[O-])c3C2=O)CC[C@@H]1C(=O)c1ccc(-c2ccc(Cl)cc2)cc1 (relative stereo)                  8.37
4  CN(C)C(=O)c1ccccc1SCC(CC(=O)c1ccc(-c2ccc(Cl)cc2)cc1)C(=O)O (stereo not shown)                  6.80

* * *

Measured On: MMP-9 (Homo sapiens, UniProt P14780)
Construct: from tissue; host or cells: human polymorphonuclear leukocytes (PMN) from whole blood (New York Blood Center), PMA-stimulated supernatant
Sequence (P14780 107-707 limits assumed): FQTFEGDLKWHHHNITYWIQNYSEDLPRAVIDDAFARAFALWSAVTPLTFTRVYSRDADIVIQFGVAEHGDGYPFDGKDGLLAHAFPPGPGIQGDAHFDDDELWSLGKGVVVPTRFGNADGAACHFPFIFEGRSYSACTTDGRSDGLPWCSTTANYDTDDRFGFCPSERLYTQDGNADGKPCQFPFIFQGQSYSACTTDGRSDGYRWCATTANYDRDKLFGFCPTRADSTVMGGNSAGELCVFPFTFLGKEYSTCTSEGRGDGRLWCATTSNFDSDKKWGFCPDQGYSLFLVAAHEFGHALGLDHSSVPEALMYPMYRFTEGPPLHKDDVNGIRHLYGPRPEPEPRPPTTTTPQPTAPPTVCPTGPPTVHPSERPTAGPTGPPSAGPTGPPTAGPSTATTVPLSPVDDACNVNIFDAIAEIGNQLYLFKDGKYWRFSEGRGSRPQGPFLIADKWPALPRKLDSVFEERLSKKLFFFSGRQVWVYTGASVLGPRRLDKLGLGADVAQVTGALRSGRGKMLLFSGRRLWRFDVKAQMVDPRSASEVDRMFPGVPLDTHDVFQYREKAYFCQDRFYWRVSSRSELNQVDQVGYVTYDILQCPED
Assay Name: Automated MMP Profiling Assay, MMP-9 fluorogenic
Assay type: biochemical
Measurement Parameters: 96-well automated, P218
IC50 for assorted molecules
Measured Parameter: IC50 (nM)

> print(dat)
                                   molecule  observed.measurement
1  O=C(C[C@H](CCCc1ccccc1)C(=O)O)c1ccc(-c2ccc(OCc3ccccc3)cc2)cc1 [Example 100]                  3220
2  O=C(CC(CCN1C(=O)c2cccc3cccc(c23)C1=O)C(=O)O)c1ccc(-c2ccc(Cl)cc2)cc1 (stereo not shown) [Example 410]                    44
3  O=C(O)[C@H]1[C@H](CN2C(=O)c3cc4ccccc4cc3C2=O)CC[C@@H]1C(=O)c1ccc(-c2ccc(Cl)cc2)cc1 (relative stereo) [Example 387]                     2
4  CC(C)COC(=O)N1CC[C@H](C(=O)c2ccc(-c3ccc(Cl)cc3)cc2)[C@H]1C(=O)O [Example 172]                  1930
5  O=C(O)[C@H]1CN(C(=O)OCc2ccccc2)C[C@@H]1C(=O)c1ccc(-c2ccc(Cl)cc2)cc1 (relative stereo) [Example 174]                   522
6  O=C(CC(CCCc1ccccc1)C(=O)O)c1ccc(-c2ccc(OCCc3ccccc3)cc2)cc1 (stereo not shown) [Example 102]                   698
7  CCN(CC)C(=O)c1cccc(SCC(CC(=O)c2ccc(-c3ccc(Cl)cc3)cc2)C(=O)O)c1 (stereo not shown) [Example 435]                   107

* * *

Measured On: MMP-3 (Homo sapiens, UniProt P08254)
Construct: Truncated Prostromelysin-257 was expressed in a soluble form in E.coli; made in house; host or cells: E. coli
Assay Name: Automated MMP Profiling Assay, MMP-3 fluorogenic
Assay type: biochemical
Measurement Parameters: 96-well automated, P218
pIC50: −log10 of the molar value.
Measured Parameter: pIC50

> print(dat)
                                   compound                           measured.on  measured.parameter  observed.measurement
1  O=C(CC(CCN1C(=O)c2ccccc2C1=O)C(=O)O)c1ccc(-c2ccc(Br)cc2)cc1 (stereo not shown) [Example 270]  MMP-3 (Homo sapiens, UniProt P08254)               pIC50                  8.22
2  COc1ccc(COc2ccc(-c3ccc(C(=O)CC(CCCc4ccccc4)C(=O)O)cc3)cc2)cc1 (stereo not shown) [Example 105]  MMP-3 (Homo sapiens, UniProt P08254)               pIC50                  7.48
3  Cc1ccc(COc2ccc(-c3ccc(C(=O)CC(CCCc4ccccc4)C(=O)O)cc3)cc2)cc1 (stereo not shown) [Example 103]  MMP-3 (Homo sapiens, UniProt P08254)               pIC50                  7.24
4  CC(=O)Nc1ccc(-c2ccc(C(=O)CC(CCc3ccccc3)C(=O)O)cc2)cc1 (stereo not shown) [Example 139]  MMP-3 (Homo sapiens, UniProt P08254)               pIC50                  5.30
5  O=C(C[C@H](CCN1C(=O)c2ccccc2C1=O)C(=O)O)c1ccc(-c2ccc(Cl)cc2)cc1 [Example 268]  MMP-3 (Homo sapiens, UniProt P08254)               pIC50                  8.24
6  O=C(CC(CCc1cccc(I)c1)C(=O)O)c1ccc(-c2ccc(Cl)cc2)cc1 (stereo not shown) [Example 127]  MMP-3 (Homo sapiens, UniProt P08254)               pIC50                  6.22
7  COc1cccc(C(=O)OC[C@@H]2CC[C@H](C(=O)c3ccc(-c4ccc(Cl)cc4)cc3)[C@H]2C(=O)O)c1 (relative stereo) [Example 382]  MMP-3 (Homo sapiens, UniProt P08254)               pIC50                  7.38

Origin of measurements: patent US5789434A
